assay.system: human FXR alpha ligand binding domain (Homo sapiens)
Construct: made in house; host or cells: E. coli BL21(DE3), vector pDEST15
Sequence (Q96RI1 187-472 isoform Q96RI1-2): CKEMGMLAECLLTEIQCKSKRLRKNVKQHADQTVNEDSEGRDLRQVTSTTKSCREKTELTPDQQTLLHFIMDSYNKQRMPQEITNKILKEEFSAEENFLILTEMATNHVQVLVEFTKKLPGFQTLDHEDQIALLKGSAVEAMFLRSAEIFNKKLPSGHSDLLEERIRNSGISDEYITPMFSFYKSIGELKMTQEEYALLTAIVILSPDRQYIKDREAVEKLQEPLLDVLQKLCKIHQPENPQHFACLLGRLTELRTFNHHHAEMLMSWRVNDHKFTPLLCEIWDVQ
experimental.details: FRET activity assay (ligand mediated cofactor peptide interaction)
Assay type: biochemical
test.conditions: FXR-LBD/SRC-1 peptide interaction, LANCE; read-out: EC50 (Group), FRET activity assay
pEC50: −log10 of the molar value.
endpoint.label: pEC50

O=C(O)c1ccc(C2CC(O)(c3ccc(OCc4c(-c5c(Cl)cccc5Cl)noc4C4CC4)cc3Cl)C2)cc1 (single isomer, unassigned) [Example 13/1] ... 7.00 to 7.60
CC(C)n1nc(C(=O)O)cc1[C@H]1C[C@](O)(c2ccc(OCc3c(-c4c(Cl)cccc4Cl)noc3C3CC3)cc2Cl)C1 [Example 8] ... > 7.60
CC(C)n1nc(C(=O)NCCS(=O)(=O)O)cc1C1CC(O)(c2ccc(OCc3c(-c4c(Cl)cccc4Cl)noc3C3CC3)cc2Cl)C1 (stereo not drawn) [14/2] ... > 7.60
CS(=O)(=O)NC(=O)c1cccc([C@H]2C[C@](O)(c3ccc(OCc4c(-c5c(Cl)cccc5Cl)noc4C4CC4)cc3Cl)C2)c1 [Example 4] ... > 7.60
Cc1cc(C(=O)O)cc(C2CC(O)(c3ccc(OCc4c(-c5c(Cl)cccc5Cl)noc4C4CC4)cc3Cl)C2)c1 (single isomer, unassigned) [13/5] ... 7.00 to 7.60

Given Cn1nc(C(=O)O)c2ccc(C3CC(O)(c4ccc(OCc5c(-c6c(Cl)cccc6Cl)noc5C5CC5)cc4Cl)C3)cc21 (stereo not drawn) [Example 10] , respond with its pEC50. > 7.60

Given COC(=O)c1cccc([C@H]2C[C@](O)(c3ccc(OCc4c(-c5c(Cl)cccc5Cl)noc4C4CC4)cc3Cl)C2)c1 [Example 1] , respond with its pEC50. 7.00 to 7.60

Given Cc1ccc(C2CC(O)(c3ccc(OCc4c(-c5c(Cl)cccc5Cl)noc4C4CC4)cc3Cl)C2)cc1C(=O)O (single isomer, unassigned) [13/6] , respond with its pEC50. < 7.00

Given CS(=O)(=O)c1cccc(C2CC(O)(c3ccc(OCc4c(-c5c(Cl)cccc5Cl)noc4C4CC4)cc3Cl)C2)c1 (stereo not drawn) [Example 6] , respond with its pEC50. 7.00 to 7.60

Given COc1ccc(C(=O)O)cc1C1CC(O)(c2ccc(OCc3c(-c4c(Cl)cccc4Cl)noc3C3CC3)cc2Cl)C1 (single isomer, unassigned) [13/3] , respond with its pEC50. 7.00 to 7.60
